Experimental system: T1, human mutCALR on BaF3 cells stably expressing human MPL and human mutCALR (MPL-mutCALR cells) (human)
T1 construct: also called mutant calreticulin
T1 chain: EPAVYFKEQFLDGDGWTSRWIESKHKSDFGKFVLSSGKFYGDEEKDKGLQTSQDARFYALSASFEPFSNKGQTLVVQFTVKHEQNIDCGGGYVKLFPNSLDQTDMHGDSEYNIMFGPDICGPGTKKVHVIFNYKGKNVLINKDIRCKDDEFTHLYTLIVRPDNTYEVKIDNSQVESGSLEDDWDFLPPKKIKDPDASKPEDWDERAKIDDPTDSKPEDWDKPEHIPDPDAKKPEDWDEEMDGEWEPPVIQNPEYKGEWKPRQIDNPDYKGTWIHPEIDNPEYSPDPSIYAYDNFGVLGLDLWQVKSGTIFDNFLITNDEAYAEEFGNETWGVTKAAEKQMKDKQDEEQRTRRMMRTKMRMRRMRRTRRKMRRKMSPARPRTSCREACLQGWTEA
Assay details: flow cytometry, BaF3 MPL-mutCALR cells
Measured MPL-mutCALR AUC, listed per entry for reference.
Number, no unit, nothing else.

>  <Binder>
anti-mutCALR antibody clone 34 (antibody, human IgG1, lambda, V domains shown, human IgG1) VH: QVQLVQSGAEVKKPGATVKISCKVSGYSFTDYFIHWVQQAPGKGLAWVGLVDPEDGETIYAEKFQGRVTITADTSTDTAYMELSSLRSEDTAVYYCATPGGILTDPDAFDIWGQGTMVTVSS VL: QSALTQPASVSGSPGQSITISCTGTSSDVGGYNYVSWYQQHPGKAPKLMIYEVSNRPSGVSNRFSGSKSGNTASLTISGLQAEDEADYYCSSYTSSSTYVFGTGTKVTVLG

>  <MPL-mutCALR AUC>
71900

$$$$
>  <Binder>
anti-mutCALR antibody clone 72 (antibody, human IgG1, lambda, N297A, V domains shown) VH: EVQLVQSGAEVKKPGASVKVSCKVSGYTLTELSMQWVRQAPGKGLEWMGGFDPDSGETMYAEKFQGRLTVTEDTSTDTVYMELSSLRSEDTAVYFCATSPGYDFFDYWGQGTLVTVSS VL: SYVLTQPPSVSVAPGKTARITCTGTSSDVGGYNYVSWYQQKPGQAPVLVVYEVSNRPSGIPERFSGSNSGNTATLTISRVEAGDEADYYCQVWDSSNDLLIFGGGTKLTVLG

>  <MPL-mutCALR AUC>
58000

$$$$

query: Given anti-mutCALR antibody clone 69 (antibody, human IgG1, lambda, N297A, V domains shown) VH: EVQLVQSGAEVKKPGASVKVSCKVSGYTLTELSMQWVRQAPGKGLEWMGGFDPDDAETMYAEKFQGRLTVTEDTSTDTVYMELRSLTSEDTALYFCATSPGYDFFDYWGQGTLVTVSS VL: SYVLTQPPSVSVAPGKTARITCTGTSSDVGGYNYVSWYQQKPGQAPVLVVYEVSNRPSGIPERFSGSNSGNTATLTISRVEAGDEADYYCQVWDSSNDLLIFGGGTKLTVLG , state its recorded MPL-mutCALR AUC.
result: 71800
